# measurement-target: hPD-1/hPD-L1 interaction (Homo sapiens (Human), UniProt Q9NZQ7)
# Sequence (Q9NZQ7 19-238): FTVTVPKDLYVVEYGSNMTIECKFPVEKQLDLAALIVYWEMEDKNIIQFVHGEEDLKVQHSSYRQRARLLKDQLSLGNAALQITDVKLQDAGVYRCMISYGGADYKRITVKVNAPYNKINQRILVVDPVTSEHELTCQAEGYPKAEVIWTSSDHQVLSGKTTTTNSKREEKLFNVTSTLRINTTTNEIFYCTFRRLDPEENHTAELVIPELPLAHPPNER
# setup-conditions: read-out: PD-1/PD-L1 IC50
measured-quantity: IC50

Measured IC50, Cc1c(COc2cc(OCc3cncc(C#N)c3)c(CN[C@@H](CO)C(=O)O)cc2Cl)cccc1-c1cccc(OCCCn2cc(CNC(CO)C(=O)O)nn2)c1C (stereo partly drawn) [II-1] : 0.1 to 10 nM

Measured IC50, COc1cc(OCc2cccc(-c3cccc(OCCCn4cc(CNCCO)nn4)c3C)c2C)c(Cl)cc1CNCCO [II-9] : 0.1 to 10 nM

Measured IC50, CCOC(=O)CNCc1cn(CCCOc2cccc(-c3cccc(COc4cc(OCc5cncc(C#N)c5)c(CNCC(=O)OCC)cc4Cl)c3C)c2C)nn1 [II-20] : 10 to 100 nM

###

# measurement-target: hPD-1/hPD-L1 interaction (Homo sapiens (Human), UniProt Q9NZQ7)
# setup-conditions: read-out: PD-1/PD-L1 IC50
measured-quantity: IC50

Sample COc1cc(OCc2cccc(-c3cccc(OCCCn4cc(CNCCNC(C)=O)nn4)c3C)c2C)c(Cl)cc1CNCCNC(C)=O [II-10] , system: hPD-1/hPD-L1 interaction (Homo sapiens (Human), UniProt Q9NZQ7). Its IC50 is 10 to 100 nM

Sample COc1cc(OCc2cccc(-c3cccc(OCCCn4cc(CN5CC[C@@H](O)C5)nn4)c3C)c2C)c(Cl)cc1CN1CC[C@@H](O)C1 [II-11] , system: hPD-1/hPD-L1 interaction (Homo sapiens (Human), UniProt Q9NZQ7). Its IC50 is 10 to 100 nM

Sample CCOC(=O)[C@@H](CO)NCc1cn(CCCOc2cccc(-c3cccc(COc4cc(OC)c(CN[C@H](CO)C(=O)OCC)cc4Cl)c3C)c2C)nn1 [II-21] , system: hPD-1/hPD-L1 interaction (Homo sapiens (Human), UniProt Q9NZQ7). Its IC50 is 10 to 100 nM

Sample COc1cc(OCc2cccc(-c3cccc(OCCCn4cc(CN5CCCC5C(N)=O)nn4)c3C)c2C)c(Cl)cc1CN1CCCC1C(N)=O (stereo not drawn) [II-8] , system: hPD-1/hPD-L1 interaction (Homo sapiens (Human), UniProt Q9NZQ7). Its IC50 is 10 to 100 nM

Sample COc1cc(OCc2cccc(-c3cccc(OCCCn4cc(CN5CCCCC5C(=O)O)nn4)c3C)c2C)c(Cl)cc1CN1CCCCC1C(=O)O (stereo not drawn) [II-13] , system: hPD-1/hPD-L1 interaction (Homo sapiens (Human), UniProt Q9NZQ7). Its IC50 is 0.1 to 10 nM

Sample COC(=O)[C@@H](CO)NCc1cn(CCCOc2cccc(-c3cccc(COc4cc(OCc5cncc(C#N)c5)c(CN[C@H](CO)C(=O)OC)cc4Cl)c3C)c2C)nn1 [II-19] , system: hPD-1/hPD-L1 interaction (Homo sapiens (Human), UniProt Q9NZQ7). Its IC50 is 10 to 100 nM

###

measured-quantity: Kd

Sample COc1cc(OCc2cccc(-c3cccc(OCCCn4cc(CNCCO)nn4)c3C)c2C)c(Cl)cc1CNCCO , system: Fc-hPD-L1 protein (Homo sapiens (Human)). Its Kd is 0.1 to 100 nM

Sample CCOC(=O)[C@@H](CO)NCc1cn(CCCOc2cccc(-c3cccc(COc4cc(OC)c(CN[C@H](CO)C(=O)OCC)cc4Cl)c3C)c2C)nn1 , system: Fc-hPD-L1 protein (Homo sapiens (Human)). Its Kd is 100 to 1000 nM

Sample CCOC(=O)[C@@H](CO)NCc1cn(CCCOc2cccc(-c3cccc(COc4cc(OCc5cncc(C#N)c5)c(CN[C@H](CO)C(=O)OCC)cc4Cl)c3C)c2C)nn1 , system: Fc-hPD-L1 protein (Homo sapiens (Human)). Its Kd is 100 to 1000 nM

Sample COc1cc(OCc2cccc(-c3cccc(OCCCn4cc(CN5CCCC5C(N)=O)nn4)c3C)c2C)c(Cl)cc1CN1CCCC1C(N)=O (stereo not drawn) , system: Fc-hPD-L1 protein (Homo sapiens (Human)). Its Kd is 0.1 to 100 nM

Sample Cc1c(COc2cc(OCc3cncc(C#N)c3)c(CN[C@@H](CO)C(=O)O)cc2Cl)cccc1-c1cccc(OCCCn2cc(CNC(CO)C(=O)O)nn2)c1C (stereo partly drawn) , system: Fc-hPD-L1 protein (Homo sapiens (Human)). Its Kd is 0.1 to 100 nM

Sample COc1cc(OCc2cccc(-c3cccc(OCCCn4cc(CNCCC(=O)O)nn4)c3C)c2C)c(Cl)cc1CNCCC(=O)O , system: Fc-hPD-L1 protein (Homo sapiens (Human)). Its Kd is 0.1 to 100 nM

Sample COC(=O)[C@@H](CO)NCc1cn(CCCOc2cccc(-c3cccc(COc4cc(OCc5cncc(C#N)c5)c(CN[C@H](CO)C(=O)OC)cc4Cl)c3C)c2C)nn1 , system: Fc-hPD-L1 protein (Homo sapiens (Human)). Its Kd is 100 to 1000 nM

Sample CCOC(=O)CNCc1cn(CCCOc2cccc(-c3cccc(COc4cc(OCc5cncc(C#N)c5)c(CNCC(=O)OCC)cc4Cl)c3C)c2C)nn1 , system: Fc-hPD-L1 protein (Homo sapiens (Human)). Its Kd is 100 to 1000 nM

Sample COc1cc(OCc2cccc(-c3cccc(OCCCn4cc(CN5CC[C@@H](O)C5)nn4)c3C)c2C)c(Cl)cc1CN1CC[C@@H](O)C1 , system: Fc-hPD-L1 protein (Homo sapiens (Human)). Its Kd is 0.1 to 100 nM

###

Exercise: state measured IC50 for each of the compounds provided.
# measurement-target: hPD-1/hPD-L1 interaction (Homo sapiens (Human), UniProt Q9NZQ7)
# setup-conditions: read-out: PD-1/PD-L1 IC50

Measured IC50, COc1cc(OCc2cccc(-c3cccc(OCCCn4cc(CNC(C)C(=O)O)nn4)c3C)c2C)c(Cl)cc1CN[C@@H](C)C(=O)O (stereo partly drawn) [II-15] : 0.1 to 10 nM

Measured IC50, COc1cc(OCc2cccc(-c3cccc(OCCCn4cc(CNCCC(=O)O)nn4)c3C)c2C)c(Cl)cc1CNCCC(=O)O [II-12] : 0.1 to 10 nM

Measured IC50, CCOC(=O)[C@@H](CO)NCc1cn(CCCOc2cccc(-c3cccc(COc4cc(OCc5cncc(C#N)c5)c(CN[C@H](CO)C(=O)OCC)cc4Cl)c3C)c2C)nn1 [II-18] : 10 to 100 nM

// provenance: patent US20240043392A1
